Target: TgENR (Toxoplasma gondii)
Sequence (Q6UCJ9 103-417 limits assumed): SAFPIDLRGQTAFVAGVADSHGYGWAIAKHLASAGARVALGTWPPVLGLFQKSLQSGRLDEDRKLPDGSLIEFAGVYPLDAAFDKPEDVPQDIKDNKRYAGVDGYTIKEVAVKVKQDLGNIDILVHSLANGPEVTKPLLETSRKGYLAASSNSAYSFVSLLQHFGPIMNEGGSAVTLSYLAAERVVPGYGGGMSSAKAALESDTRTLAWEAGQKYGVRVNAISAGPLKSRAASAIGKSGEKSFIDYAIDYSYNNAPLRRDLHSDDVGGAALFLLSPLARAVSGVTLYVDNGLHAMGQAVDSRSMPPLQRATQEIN
Assay: Thermal shift assay, ligand binding to TgENR alone
Conditions: read-out: Kd of NAD^+ binding to TgENR; TSA, binary complex
PARAMETER MEASURED: pKd
Friendly reminder that pKd comes from taking -log10 of the concentration in mol/L.

Q. Recorded pKd for NC(=O)c1ccc[n+]([C@@H]2O[C@H](COP(=O)([O-])OP(=O)(O)OC[C@H]3O[C@@H](n4cnc5c(N)ncnc54)[C@H](O)[C@@H]3O)[C@@H](O)[C@H]2O)c1 with TgENR (Toxoplasma gondii), please?
A. 2.22
